A collection of molecules and their measured viscosity
- run_parameters: 313.15 K; 100000 kPa; Liquid; Vibrating wire viscometry

{"structure": "CC(C)CC(C)(C)C", "viscosity (mPa·s)": 1.045}
{"structure": "Cc1ccc(C)c(C)c1", "viscosity (mPa·s)": 1.415}
{"structure": "CCCCCCC", "viscosity (mPa·s)": 0.7259}
{"structure": "CCCCCCCCCCCC", "viscosity (mPa·s)": 2.758}
{"structure": "Cc1ccccc1", "viscosity (mPa·s)": 0.9082}

---

- run_parameters: 313.15 K; 10000 kPa; Liquid; Vibrating wire viscometry
// reported viscosity per item

{"structure": "Cc1ccc(C)c(C)c1", "viscosity [mPa·s]": 0.7606}
{"structure": "CC(C)CC(C)(C)C", "viscosity [mPa·s]": 0.4633}
{"structure": "CCCCCCC", "viscosity [mPa·s]": 0.3735}
{"structure": "CCCCCCCCCCCC", "viscosity [mPa·s]": 1.201}
{"structure": "Cc1ccccc1", "viscosity [mPa·s]": 0.5046}
